This collection of values is drawn from ChEMBL document CHEMBL1275456.

tested on: Pseudomonas aeruginosa; assay: Antimicrobial activity against Pseudomonas aeruginosa urine isolate 4698 containing PFGE clone A expressing beta-lactamase IMP-15 by broth microdilution method; format: functional; details: isolate 4698, Urine
// values below are reported MIC
measurementLabel: MIC (µg/mL)

# compound, subjectOfTest, censoringOperator, measuredValue
data = [
    ("C[C@@H](O)[C@H]1C(=O)N2C(C(=O)O)=C(S[C@@H]3CN[C@H](C(=O)N(C)C)C3)[C@H](C)[C@H]12", "Pseudomonas aeruginosa", "=", 128),
    ("C[C@@H](O)[C@H]1C(=O)N2C(C(=O)O)=C(SCCNC=N)C[C@H]12 [IMIPENEM ANHYDROUS]", "Pseudomonas aeruginosa", ">", 128),
    ("CC(C)(O/N=C(\\C(=O)N[C@@H]1C(=O)N2C(C(=O)[O-])=C(C[n+]3ccccc3)CS[C@H]12)c1csc(N)n1)C(=O)O", "Pseudomonas aeruginosa", ">", 128),
    ("NCC[C@H](O)C(=O)N[C@@H]1C[C@H](N)[C@@H](O[C@H]2O[C@H](CN)[C@@H](O)[C@H](O)[C@H]2O)[C@H](O)[C@H]1O[C@H]1O[C@H](CO)[C@@H](O)[C@H](N)[C@H]1O", "Pseudomonas aeruginosa", ">", 128),
    ("CCN1CCN(C(=O)N[C@@H](C(=O)N[C@@H]2C(=O)N3[C@@H]2SC(C)(C)[C@@H]3C(=O)O)c2ccccc2)C(=O)C1=O", "Pseudomonas aeruginosa", "=", 64),
]
